assay-system: P. falciparum apicoplast DNA polymerase (Pf-apPOL) (Plasmodium falciparum)
Sequence (Q8ILY1 entry or part of it): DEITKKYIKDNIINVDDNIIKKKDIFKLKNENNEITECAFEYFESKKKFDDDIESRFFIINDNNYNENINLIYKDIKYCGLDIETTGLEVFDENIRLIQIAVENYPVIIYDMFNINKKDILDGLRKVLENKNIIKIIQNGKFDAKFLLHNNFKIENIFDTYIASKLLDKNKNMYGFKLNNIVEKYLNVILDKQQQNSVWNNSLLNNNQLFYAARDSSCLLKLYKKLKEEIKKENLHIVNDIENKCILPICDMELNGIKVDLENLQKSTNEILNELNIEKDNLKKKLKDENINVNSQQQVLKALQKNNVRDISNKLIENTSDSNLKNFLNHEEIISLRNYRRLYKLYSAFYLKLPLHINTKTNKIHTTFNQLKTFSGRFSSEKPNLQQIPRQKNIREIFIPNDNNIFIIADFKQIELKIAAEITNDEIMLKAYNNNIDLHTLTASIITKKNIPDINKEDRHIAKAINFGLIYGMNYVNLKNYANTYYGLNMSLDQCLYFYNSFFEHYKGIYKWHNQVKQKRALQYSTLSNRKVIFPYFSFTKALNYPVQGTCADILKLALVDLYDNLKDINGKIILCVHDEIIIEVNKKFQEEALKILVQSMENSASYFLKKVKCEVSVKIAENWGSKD
protocol-description: Fluorescence-based high-throughput DNA polymerase assay (molecular beacon), primary screen and dose-response
Format: biochemical
setup-conditions: DRC-2; 5'; concentration 5
From the text: The HT assay employs a molecular beacon, a stem-loop DNA template with a Cy3 dye and the Black Hole Quencher on the 3′ and 5′ ends of the DNA, respectively. Pf-apPOL concentration is based on a calculated absorptivity of ε280 = 56750 M^−1 cm^−1. […] To identify apPOL inhibitors we utilised our previously developed high-throughput DNA polymerase assay. […] The assay accurately recapitulates the kinetic behaviour of apPOL, as measured through more conventional low-throughput gel-based assays. […]
Property: % inhibition Apo pol 5'; scope: individual compounds

[
  {
    "compound": "O=C(Cn1ccc2c(=O)[nH]ccc21)Nc1cc(F)ccc1F [Molecule 42, O=C(Cn1ccc2c1cc[nH]c2=O)Nc1cc(F)ccc1F]",
    "result-unit": "%",
    "% inhibition Apo pol 5'": 11
  },
  {
    "compound": "CC(C)(C)OC(=O)COc1ccc2cc(-c3ccccc3)c(=O)oc2c1",
    "result-unit": "%",
    "% inhibition Apo pol 5'": 10
  },
  {
    "compound": "CCOc1cccc2cc(C(=O)Nc3nnc(-c4ccno4)o3)oc12",
    "result-unit": "%",
    "% inhibition Apo pol 5'": 28
  },
  {
    "compound": "Cc1ccc(C(=O)/C=C/C=C/C=C/N(C)C)o1",
    "result-unit": "%",
    "% inhibition Apo pol 5'": 13
  },
  {
    "compound": "Oc1cccc2ccc(/C=C/c3ccc4c(c3)OCO4)nc12",
    "result-unit": "%",
    "% inhibition Apo pol 5'": 21
  },
  {
    "compound": "O=c1[nH]c2ccc([N+](=O)[O-])cc2c(-c2ccccc2)c1Sc1nc2ccccc2o1",
    "result-unit": "%",
    "% inhibition Apo pol 5'": 12
  },
  {
    "compound": "COc1cc(Cl)c(C)cc1NC(=O)Cn1ccc2c(=O)[nH]ccc21",
    "result-unit": "%",
    "% inhibition Apo pol 5'": 14
  },
  {
    "compound": "O=C1c2ccccc2C(=O)c2c1oc1c3c(ccc21)OCN(C1CCCC1)C3",
    "result-unit": "%",
    "% inhibition Apo pol 5'": 23
  }
]
